All values here come from patent US7727960B2.

# ASSAYED_SYSTEM: human C5aR (CD88) (human, UniProt P21730 1-350)
# Sequence (looked up): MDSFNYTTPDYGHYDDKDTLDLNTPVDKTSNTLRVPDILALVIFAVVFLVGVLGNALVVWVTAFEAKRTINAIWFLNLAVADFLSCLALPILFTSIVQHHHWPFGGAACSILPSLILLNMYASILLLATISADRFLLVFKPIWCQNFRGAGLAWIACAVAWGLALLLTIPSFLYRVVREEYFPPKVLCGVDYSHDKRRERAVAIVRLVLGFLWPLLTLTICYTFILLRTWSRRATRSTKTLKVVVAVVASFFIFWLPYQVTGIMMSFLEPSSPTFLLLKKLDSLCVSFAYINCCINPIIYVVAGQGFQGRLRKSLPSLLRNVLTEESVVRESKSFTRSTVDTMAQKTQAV
# ASSAY_SUMMARY: cell-based or functional assay
PARAMETER_MEASURED: IC50 activity group, enzyme release assay

// solved cases for IC50 activity group, enzyme release assay follow
FAc-Phe-Orn-Pro-cha-Bta-Phe-NH2 (peptide)	< 50 nM
Ac-Phe-Orn-Hyp-cha-Trp-Phe-NH2 (peptide)	< 2000 nM
Ac-Phe-Orn-Pro-hle-Bta-Aic-NH2 (peptide)	< 200 nM
FH2C-CO-Phe-Orn-Pro-cha-Bta-Phe-NH2 (peptide)	< 50 nM
H-Nip-Phe-Cit-Pro-hle-Bta-Phe-NH2 (peptide)	< 200 nM

Q. Can you look up the measured IC50 activity group, enzyme release assay of Ac-Mff-Orn-Pro-hle-Mcf-Mff-NH2 (peptide) for me?
A. < 200 nM

Q. Which IC50 activity group, enzyme release assay reading was recorded for the substance Ac-Phe-Orn-Pro-hle-Bta-phe-OH (peptide) ?
A. < 200 nM
